- systemTested: Potassium voltage-gated channel subfamily KQT member 1 (Homo sapiens) (UniProt P51787)
- Sequence (P51787 whole entry, looked up): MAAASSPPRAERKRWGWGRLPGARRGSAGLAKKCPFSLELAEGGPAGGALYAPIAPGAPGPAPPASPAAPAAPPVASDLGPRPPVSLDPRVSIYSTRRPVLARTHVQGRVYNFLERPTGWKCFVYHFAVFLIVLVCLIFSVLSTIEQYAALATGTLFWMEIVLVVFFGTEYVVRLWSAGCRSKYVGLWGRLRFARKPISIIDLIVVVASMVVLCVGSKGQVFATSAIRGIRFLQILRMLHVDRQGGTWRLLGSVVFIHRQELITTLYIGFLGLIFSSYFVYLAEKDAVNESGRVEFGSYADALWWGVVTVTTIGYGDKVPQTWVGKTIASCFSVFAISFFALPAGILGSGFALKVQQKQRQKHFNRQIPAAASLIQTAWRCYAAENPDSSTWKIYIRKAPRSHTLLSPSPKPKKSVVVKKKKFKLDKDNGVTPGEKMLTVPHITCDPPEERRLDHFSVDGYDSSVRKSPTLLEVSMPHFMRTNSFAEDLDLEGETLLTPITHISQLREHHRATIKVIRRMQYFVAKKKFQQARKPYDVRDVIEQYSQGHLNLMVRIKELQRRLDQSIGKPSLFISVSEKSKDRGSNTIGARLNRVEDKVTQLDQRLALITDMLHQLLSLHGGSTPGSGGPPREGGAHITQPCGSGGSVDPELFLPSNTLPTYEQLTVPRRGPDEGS
- protocolDetails: KCNQ1 channel current potentiators, confirmation, orthogonal assay for KCNQ1 potentiator project, IonWorks patch clamp, KCNQ1-CHO cells (AID 493184)
- conditions: automated patch clamp current, at 10 µM
The source made the active and inactive calls.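 The calls were made as follows: active = current rise at least 3 SD above the untreated control mean in each of two repeat wells; inactive = the rest.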
Lab note: assign the record to one of t (active), f (inactive)

I'd appreciate the recorded outcome for `Cc1ccc(-c2csc(=S)[nH]2)cc1` from this test.
f

I'd appreciate the recorded outcome for CCN=C1SC(CC(=O)Nc2ccccc2OCC)C(=O)N1CC (stereo not drawn) from this test.
f

I'd appreciate the recorded outcome for `Oc1c(N=NC(=S)Nc2ccccc2F)c2ccccc2n1Cc1ccc(Cl)cc1` from this test.
f

I'd appreciate the recorded outcome for `Cc1ccc2nc(C3CCN(S(=O)(=O)c4ccc5ccccc5c4)CC3)[nH]c2c1` from this test.
f

I'd appreciate the recorded outcome for CCOc1ccccc1C1c2[nH]c3ccccc3c2C[C@H]2C(=O)N(C3CC3)CC(=O)N12 (stereo partly drawn) from this test.
t

I'd appreciate the recorded outcome for `CCc1ccc2nc(N(CCCN(C)C)C(=O)c3ccc(S(=O)(=O)N4CCCc5ccccc54)cc3)sc2c1` from this test.
f

I'd appreciate the recorded outcome for `Nc1nc(NCc2ccco2)nc(NC2CCCCC2)c1[N+](=O)[O-]` from this test.
f

I'd appreciate the recorded outcome for `FC(F)(F)c1cccc(CN2CCC(c3cc(-c4cccs4)n[nH]3)CC2)c1` from this test.
f
